Target: T1, FZD6 cysteine-rich domain (CRD), MYC-tagged and GPI-anchored on CHO cells (human, UniProt O60353 20-146, GPI anchor)
T1 construct: also called FZD6 CRD; CHO-myc-FZDGPI; not shown: MYC tag and GPI anchor signal
T1 sequence: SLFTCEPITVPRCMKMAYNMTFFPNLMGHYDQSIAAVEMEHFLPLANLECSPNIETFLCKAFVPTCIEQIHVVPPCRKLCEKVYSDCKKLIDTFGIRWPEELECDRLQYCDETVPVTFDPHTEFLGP
Assay: flow cytometry, CHO-CRD cells;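 note: flow cytometry of Fab binding to CHO cells overexpressing a Frizzled CRD, with binding defined as median fluorescence over twice that of CHO cells lacking any Frizzled CRD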
endpoint-name: median fluorescence
// no unit string in output, number only

binder: Fab-2905 (Fab, V domains shown, Fab; also called Fv-2905) VH: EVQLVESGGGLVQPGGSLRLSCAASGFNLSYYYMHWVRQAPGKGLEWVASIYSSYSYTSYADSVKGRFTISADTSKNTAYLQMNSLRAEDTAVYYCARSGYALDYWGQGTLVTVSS VL: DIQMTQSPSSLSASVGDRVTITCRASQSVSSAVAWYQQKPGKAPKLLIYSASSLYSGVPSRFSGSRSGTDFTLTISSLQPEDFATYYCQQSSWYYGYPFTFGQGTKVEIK
median fluorescence: 3.22

binder: Fab-2935 (Fab, V domains shown, Fab; also called Fv-2935) VH: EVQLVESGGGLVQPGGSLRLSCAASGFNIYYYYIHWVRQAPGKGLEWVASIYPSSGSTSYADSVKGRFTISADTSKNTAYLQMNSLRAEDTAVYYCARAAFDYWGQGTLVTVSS VL: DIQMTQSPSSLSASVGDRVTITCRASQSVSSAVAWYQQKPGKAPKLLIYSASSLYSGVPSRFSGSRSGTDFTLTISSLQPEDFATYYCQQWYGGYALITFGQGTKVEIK
median fluorescence: 3.37

INPUT: Could you tell me which median fluorescence is on file for Fab-2920 (Fab, V domains shown, Fab) VH: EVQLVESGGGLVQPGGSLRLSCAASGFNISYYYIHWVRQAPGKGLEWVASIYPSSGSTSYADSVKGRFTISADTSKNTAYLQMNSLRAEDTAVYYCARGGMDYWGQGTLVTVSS VL: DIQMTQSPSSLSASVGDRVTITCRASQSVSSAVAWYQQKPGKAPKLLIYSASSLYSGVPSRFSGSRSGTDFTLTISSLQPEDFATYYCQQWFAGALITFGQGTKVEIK ?
OUTPUT: 3.02

INPUT: Could you tell me which median fluorescence is on file for Fab-2903 (Fab, V domains shown, Fab; also called Fv-2903) VH: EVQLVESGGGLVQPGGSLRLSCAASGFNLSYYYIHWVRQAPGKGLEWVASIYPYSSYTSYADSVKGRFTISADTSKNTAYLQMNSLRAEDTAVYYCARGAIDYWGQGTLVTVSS V domain: DIQMTQSPSSLSASVGDRVTITCRASQSVSSAVAWYQQKPGKAPKLLIYSASSLYSGVPSRFSGSRSGTDFTLTISSLQPEDFATYYCQQWGGGSSLFTFG ?
OUTPUT: 3.52

INPUT: Could you tell me which median fluorescence is on file for Fab-2909 (Fab, V domains shown, Fab; also called Fv-2909) VH: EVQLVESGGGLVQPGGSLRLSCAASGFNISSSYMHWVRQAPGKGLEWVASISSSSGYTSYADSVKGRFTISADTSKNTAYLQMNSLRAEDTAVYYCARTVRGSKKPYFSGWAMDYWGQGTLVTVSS VL: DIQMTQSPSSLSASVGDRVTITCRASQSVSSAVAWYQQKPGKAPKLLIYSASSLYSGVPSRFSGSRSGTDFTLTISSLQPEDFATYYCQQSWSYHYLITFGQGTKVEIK ?
OUTPUT: 2.89

INPUT: Could you tell me which median fluorescence is on file for Fab-2908 (Fab, V domains shown, Fab; also called Fv-2908) VH: EVQLVESGGGLVQPGGSLRLSCAASGFNFSSSSIHWVRQAPGKGLEWVAYIYPSYSYTYYADSVKGRFTISADTSKNTAYLQMNSLRAEDTAVYYCARAYYGHFHAMDYWGQGTLVTVSS VL: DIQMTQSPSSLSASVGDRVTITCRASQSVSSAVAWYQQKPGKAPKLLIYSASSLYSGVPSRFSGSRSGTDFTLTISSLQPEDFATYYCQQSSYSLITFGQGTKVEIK ?
OUTPUT: 2.89

INPUT: Could you tell me which median fluorescence is on file for Fab-2928 (Fab, V domains shown, Fab; also called Fv-2928) VH: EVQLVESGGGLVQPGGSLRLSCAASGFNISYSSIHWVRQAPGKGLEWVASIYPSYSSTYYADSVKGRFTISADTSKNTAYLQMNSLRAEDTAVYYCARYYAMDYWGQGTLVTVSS VL: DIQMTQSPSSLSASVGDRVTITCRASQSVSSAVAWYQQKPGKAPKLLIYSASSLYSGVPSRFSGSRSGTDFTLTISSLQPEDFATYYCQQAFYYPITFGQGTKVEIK ?
OUTPUT: 3.08

INPUT: Could you tell me which median fluorescence is on file for Fab-2912 (Fab, V domains shown, Fab; also called Fv-2912) VH: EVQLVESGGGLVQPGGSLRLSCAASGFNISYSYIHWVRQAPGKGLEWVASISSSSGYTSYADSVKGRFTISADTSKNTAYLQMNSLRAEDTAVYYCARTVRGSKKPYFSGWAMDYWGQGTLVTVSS VL: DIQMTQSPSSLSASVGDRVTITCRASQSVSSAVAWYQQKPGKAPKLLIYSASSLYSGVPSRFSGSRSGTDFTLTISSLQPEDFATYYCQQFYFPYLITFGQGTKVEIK ?
OUTPUT: 4.1

INPUT: Could you tell me which median fluorescence is on file for Fab-2915 (Fab, V domains shown, Fab; also called Fv-2915) VH: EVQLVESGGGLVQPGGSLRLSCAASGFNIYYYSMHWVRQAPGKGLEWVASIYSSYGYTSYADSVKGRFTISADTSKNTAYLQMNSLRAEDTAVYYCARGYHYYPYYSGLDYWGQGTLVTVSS VL: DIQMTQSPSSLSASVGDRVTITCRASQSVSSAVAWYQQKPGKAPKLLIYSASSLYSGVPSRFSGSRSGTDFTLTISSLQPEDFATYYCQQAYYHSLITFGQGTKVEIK ?
OUTPUT: 3.37

INPUT: Could you tell me which median fluorescence is on file for Fab-2898 (Fab, V domains shown, Fab; also called Fv-2898) VH: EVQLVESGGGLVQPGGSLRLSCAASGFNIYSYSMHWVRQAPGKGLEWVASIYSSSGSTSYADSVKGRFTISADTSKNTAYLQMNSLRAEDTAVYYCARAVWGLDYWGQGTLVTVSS VL: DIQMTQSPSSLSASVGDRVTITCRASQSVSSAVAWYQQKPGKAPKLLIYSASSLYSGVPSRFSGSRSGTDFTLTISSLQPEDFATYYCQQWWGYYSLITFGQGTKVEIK ?
OUTPUT: 4.49
